- Target or test system: T1, human IL-11 (human, UniProt P20809 22-199)
- T1 sequence: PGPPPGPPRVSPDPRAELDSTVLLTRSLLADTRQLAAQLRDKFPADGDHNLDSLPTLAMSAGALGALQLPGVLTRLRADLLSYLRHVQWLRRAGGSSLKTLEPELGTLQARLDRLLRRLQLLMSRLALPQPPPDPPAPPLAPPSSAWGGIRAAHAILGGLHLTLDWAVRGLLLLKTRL
- Measurement protocol: cell-based or functional assay
Listing: RGA IC50 of selected binders
Provide the reading as a plain figure in nM.

Binder	Display unit	Quantitative result
TPP-26297 (antibody, V domains shown) VH: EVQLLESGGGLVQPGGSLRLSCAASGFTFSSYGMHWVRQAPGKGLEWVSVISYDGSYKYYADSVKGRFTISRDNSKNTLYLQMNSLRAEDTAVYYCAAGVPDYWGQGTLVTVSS VL: QSVLTQPPSASGTPGQRVTISCTGSSSNIGAGYDVHWYQQLPGTAPKLLIYSNNERPSGVPDRFSGSKSGTSASLAISGLRSEDEADYYCAAWQDSLNGPVFGGGTKLTVL	nM	3.7
TPP-26320 (antibody, V domains shown) VH: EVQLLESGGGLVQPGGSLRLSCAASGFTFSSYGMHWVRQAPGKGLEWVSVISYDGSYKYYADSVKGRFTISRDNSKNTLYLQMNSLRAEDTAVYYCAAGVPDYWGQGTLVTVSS VL: QSVLTQPPSASGTPGQRVTISCTGSSSNIGAGYDVHWYQQLPGTAPKLLIYSNEERPSGVPDRFSGSKSGTSASLAISGLRSEDEADYYCAAWDDSLNGPVFGGGTKLTVL	nM	7.4
TPP-26303 (antibody, V domains shown) VH: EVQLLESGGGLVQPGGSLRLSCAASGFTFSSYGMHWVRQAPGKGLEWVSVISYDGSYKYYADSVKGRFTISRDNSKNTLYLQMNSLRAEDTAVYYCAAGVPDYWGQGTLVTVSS VL: QSVLTQPPSASGTPGQRVTISCTGSSSNIGAGYDVHWYQQLPGTAPKLLIYSNNERPEGVPDRFSGSKSGTSASLAISGLRSEDEADYYCAAWDDSLNGPVFGGGTKLTVL	nM	22
TPP-26330 (antibody, V domains shown) VH: EVQLLESGGGLVQPGGSLRLSCAASGFTFSFYGMHWVRQAPGKGLEWVSVISYDGSYKYYADSVKGRFTISRDNSKNTLYLQMNSLRAEDTAVYYCAAGVPDYWGQGTLVTVSS VL: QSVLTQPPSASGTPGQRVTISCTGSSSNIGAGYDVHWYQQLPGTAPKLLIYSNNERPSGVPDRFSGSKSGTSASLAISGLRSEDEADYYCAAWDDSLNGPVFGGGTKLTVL	nM	3.4
TPP-26324 (antibody, V domains shown) VH: EVQLLESGGGLVQPGGSLRLSCAASGFTFSSYGMHWVRQAPGKGLEWVSVISYDGSYKYYRDSVKGRFTISRDNSKNTLYLQMNSLRAEDTAVYYCAAGVPDYWGQGTLVTVSS VL: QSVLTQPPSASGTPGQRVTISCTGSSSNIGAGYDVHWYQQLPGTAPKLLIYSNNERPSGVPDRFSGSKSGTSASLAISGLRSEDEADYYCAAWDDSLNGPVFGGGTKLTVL	nM	1.5
TPP-26298 (antibody, V domains shown) VH: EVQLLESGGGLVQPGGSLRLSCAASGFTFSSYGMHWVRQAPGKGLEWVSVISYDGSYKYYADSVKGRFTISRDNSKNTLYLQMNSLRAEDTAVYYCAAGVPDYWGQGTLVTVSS VL: QSVLTQPPSASGTPGQRVTISCLGSSSNIGAGYDVHWYQQLPGTAPKLLIYSNNERPSGVPDRFSGSKSGTSASLAISGLRSEDEADYYCAAWDDSLNGPVFGGGTKLTVL	nM	4.1

Given the binder TPP-26321 (antibody, V domains shown) VH: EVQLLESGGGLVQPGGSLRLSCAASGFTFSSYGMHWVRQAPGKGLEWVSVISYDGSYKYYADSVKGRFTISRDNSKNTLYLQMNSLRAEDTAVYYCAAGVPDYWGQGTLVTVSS VL: QSVLTQPPSASGTPGQRVTISCTGSSSNIGAGYDVHWYQQLPGTAPKLLIYSNNERPSGVPDRFSGSKSGTSASLAISGLRSEDEADYYCAAWDLSLNGPVFGGGTKLTVL , write its reported RGA IC50.
2.1

Return RGA IC50 for the following binder: TPP-26292 (antibody, V domains shown) VH: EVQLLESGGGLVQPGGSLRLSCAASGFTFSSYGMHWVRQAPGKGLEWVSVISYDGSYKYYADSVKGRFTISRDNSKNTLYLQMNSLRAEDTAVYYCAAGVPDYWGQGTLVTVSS VL: QSVLTQPPSASGTPGQRVTISCTGSSSNIGAGYDVHWYQQLPGTAPKLLIYSNNERPSGVPDRFSGSKSGTSASLAISGLRSEDEADYYCAAWDESLNGPVFGGGTKLTVL
5.6

Supply reported RGA IC50 belonging to this binder: TPP-26307 (antibody, V domains shown) VH: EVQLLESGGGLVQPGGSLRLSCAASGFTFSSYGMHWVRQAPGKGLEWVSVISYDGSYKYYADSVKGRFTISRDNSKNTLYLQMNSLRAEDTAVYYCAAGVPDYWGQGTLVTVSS VL: QSVLTQPPSASGTPGQRVTISCTGSSSNIGAGYDVHWYQQLPGTAPKLLIYSNNERPSGVPDRFSGSKSGTSASLAISGLRSEDEADYYCAAWDISLNGPVFGGGTKLTVL
5.3

Supply recorded RGA IC50 for TPP-26315 (antibody, V domains shown) VH: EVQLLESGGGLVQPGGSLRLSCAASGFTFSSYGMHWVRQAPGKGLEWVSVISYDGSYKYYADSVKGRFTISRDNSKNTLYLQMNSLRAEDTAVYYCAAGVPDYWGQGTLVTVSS VL: QSVLTQPPSASGTPGQRVTISCTGSSSNIGAHYDVHWYQQLPGTAPKLLIYSNNERPSGVPDRFSGSKSGTSASLAISGLRSEDEADYYCAAWDDSLNGPVFGGGTKLTVL here.
1.7

Hey, just so you know, these numbers are from patent US20240317847A1.
